Test: xn = mol fraction of the nth substance listed, in the solute-free solvent
Conditions: 308.15 K; x2 = 0.4117
Listed below: solubility (g/100 g solution) values for each entry.

COMPOUND: O=c1cc(CBr)c2ccccc2[nH]1 + CC(C)O + O
solubility (g/100 g solution): 0.144

COMPOUND: O=c1cc(CBr)c2ccccc2[nH]1 + CCCO + O
solubility (g/100 g solution): 0.189

COMPOUND: Nc1ncc(Br)nc1Br + CC(C)O + O
solubility (g/100 g solution): 0.403

COMPOUND: O=C1C=CC(=O)N1c1ccccc1Br + CC(C)O + O
solubility (g/100 g solution): 10.5

Now turn to the next compound.
Prompt line: Any idea what its solubility (g/100 g solution) is? The compound is CC(C)C(=O)Nc1ccc([N+](=O)[O-])c(C(F)(F)F)c1 + CC(C)O + O
Response line: 16.6

----------
Reported solubility (g/100 g solution) values for a set of compounds
Assay: xn = mol fraction of the nth substance listed, in the solute-free solvent
Conditions: 318.15 K; x2 = 0.4772
API note: the answer field is a bare number with no unit suffix.

Known results for compounds:
COMPOUND: CC(C)C(=O)Nc1ccc([N+](=O)[O-])c(C(F)(F)F)c1 + CCO + O
solubility (g/100 g solution): 16.8
--
COMPOUND: O=c1cc(CBr)c2ccccc2[nH]1 + CCO + O
solubility (g/100 g solution): 0.221
--
COMPOUND: Nc1cc(-c2ccncc2)c[nH]c1=O + CCO + O
solubility (g/100 g solution): 0.0247

Prompt line: # query: solubility (g/100 g solution) of entry Nc1ncc(Br)nc1Br + CCO + O
Response line: 0.863

Prompt line: Also need O=C1C=CC(=O)N1c1ccccc1Br + CCO + O , thanks.
Response line: 18.1

----------
Test: xn = mol fraction of the nth substance listed, in the solute-free solvent
Conditions: 288.15 K; x2 = 0.1139
Listed below: solubility (g/100 g solution) values for each entry.
Write the number on its own, no unit after it.

Here is how some compounds turned out for solubility (g/100 g solution).
COMPOUND: CC(C)C(=O)Nc1ccc([N+](=O)[O-])c(C(F)(F)F)c1 + CC(C)O + O
solubility (g/100 g solution): 0.228
--
COMPOUND: O=C1C=CC(=O)N1c1ccccc1Br + CC(C)O + O
solubility (g/100 g solution): 2.18
--
COMPOUND: Nc1ncc(Br)nc1Br + CC(C)O + O
solubility (g/100 g solution): 0.101
--
COMPOUND: O=c1cc(CBr)c2ccccc2[nH]1 + CCCO + O
solubility (g/100 g solution): 0.0643

Here's the next entry for you.
Prompt line: // solubility (g/100 g solution) lookup, key: O=c1cc(CBr)c2ccccc2[nH]1 + CC(C)O + O
Response line: 0.0456

----------
Recorded solubility (g/100 g solution) for the following compounds
Assay: xn = mol fraction of the nth substance listed, in the solute-free solvent
Details: 303.15 K; x2 = 0.6

Observe how each entry below is paired with its result.
COMPOUND: CC(C)C(=O)Nc1ccc([N+](=O)[O-])c(C(F)(F)F)c1 + C1CCOC1 + CC(C)O
ASSAY METRIC: solubility (g/100 g solution)
RESULT: 61.9

COMPOUND: CC(C)C(=O)Nc1ccc([N+](=O)[O-])c(C(F)(F)F)c1 + CCOC(C)=O + CC(C)O
ASSAY METRIC: solubility (g/100 g solution)
RESULT: 50.4

COMPOUND: CC(C)C(=O)Nc1ccc([N+](=O)[O-])c(C(F)(F)F)c1 + CC(C)=O + CC(C)O
ASSAY METRIC: solubility (g/100 g solution)
RESULT: 61.1

The record that follows has no solubility (g/100 g solution) shown yet.
Prompt line: Which measured solubility (g/100 g solution) value corresponds to Cl.NC1CCSC1=O (centres undefined) + CO + CC#N ?
Response line: 5.55
